Please provide measured AC50 for the entries that follow.

Query block: Supply AC50 measured with Glutamate receptor ionotropic, NMDA 1 (Rattus norvegicus, UniProt P35439) for C=C1/C(=C\C=C2/CCC[C@]3(C)[C@@H]([C@H](C)/C=C/[C@@H](O)C4CC4)CC[C@@H]23)C[C@@H](O)C[C@@H]1O .
Result block: > 30 µM

Query block: Supply AC50 measured with Glutamate receptor ionotropic, NMDA 1 (Rattus norvegicus, UniProt P35439) for CC(C)[C@H](N)C(=O)OCC(CO)OCn1cnc2c(=O)nc(N)[nH]c21 (stereo partly drawn) .
Result block: > 30 µM

Query block: Supply AC50 measured with Glutamate receptor ionotropic, NMDA 1 (Rattus norvegicus, UniProt P35439) for CN(C)CCCNc1c2ccccc2nc2cccc([N+](=O)[O-])c12 .
Result block: > 30 µM

Query block: Supply AC50 measured with Glutamate receptor ionotropic, NMDA 1 (Rattus norvegicus, UniProt P35439) for COc1ccc2nc3cc(Cl)ccc3c(Nc3cc(CN4CCCC4)c(O)c(CN4CCCC4)c3)c2n1 .
Result block: > 30 µM

Query block: Supply AC50 measured with Glutamate receptor ionotropic, NMDA 1 (Rattus norvegicus, UniProt P35439) for CC(C)N(CCC(C(N)=O)(c1ccccc1)c1ccccn1)C(C)C (stereo not drawn) [DISOPYRAMIDE] .
Result block: > 10 µM

Query block: Supply AC50 measured with Glutamate receptor ionotropic, NMDA 1 (Rattus norvegicus, UniProt P35439) for OC[C@H]1O[C@@](CO)(O[C@H]2O[C@H](CO)[C@@H](O)[C@H](O)[C@H]2O)[C@@H](O)[C@@H]1O .
Result block: > 30 µM

Query block: Supply AC50 measured with Glutamate receptor ionotropic, NMDA 1 (Rattus norvegicus, UniProt P35439) for CN(C)CCc1c[nH]c2ccc(Cn3cncn3)cc12 .
Result block: > 30 µM

Query block: Supply AC50 measured with Glutamate receptor ionotropic, NMDA 1 (Rattus norvegicus, UniProt P35439) for OCc1cc(C(O)CNCCCCCCOCCCCc2ccccc2)ccc1O (stereo not drawn) .
Result block: > 10 µM

Query block: Supply AC50 measured with Glutamate receptor ionotropic, NMDA 1 (Rattus norvegicus, UniProt P35439) for CCC(C)C(CC)C(N)=O (stereo not drawn) [VALNOCTAMIDE] .
Result block: > 30 µM

Query block: Supply AC50 measured with Glutamate receptor ionotropic, NMDA 1 (Rattus norvegicus, UniProt P35439) for CC(=O)[C@]1(O)Cc2c(O)c3c(c(O)c2[C@@H](O[C@H]2C[C@H](N)[C@H](O)[C@H](C)O2)C1)C(=O)c1ccccc1C3=O .
Result block: > 30 µM

Query block: Supply AC50 measured with Glutamate receptor ionotropic, NMDA 1 (Rattus norvegicus, UniProt P35439) for CC(C(=O)O)c1ccc(CC2CCCC2=O)cc1 (stereo not drawn) .
Result block: > 30 µM

Query block: Supply AC50 measured with Glutamate receptor ionotropic, NMDA 1 (Rattus norvegicus, UniProt P35439) for COc1ccc(CC2c3cc(OC)c(OC)cc3CC[N+]2(C)CCC(=O)OCCCCCOC(=O)CC[N+]2(C)CCc3cc(OC)c(OC)cc3C2Cc2ccc(OC)c(OC)c2)cc1OC (stereo not drawn) .
Result block: > 30 µM

Query block: Supply AC50 measured with Glutamate receptor ionotropic, NMDA 1 (Rattus norvegicus, UniProt P35439) for CCN1CCCC1CNC(=O)c1cc(S(=O)(=O)CC)c(N)cc1OC (stereo not drawn) [AMISULPRIDE] .
Result block: > 30 µM

Query block: Supply AC50 measured with Glutamate receptor ionotropic, NMDA 1 (Rattus norvegicus, UniProt P35439) for CC(=O)[C@@]1(O)CC[C@H]2[C@@H]3C=C(Cl)C4=CC(=O)[C@@H]5C[C@@H]5[C@]4(C)[C@H]3CC[C@@]21C .
Result block: > 10 µM

Query block: Supply AC50 measured with Glutamate receptor ionotropic, NMDA 1 (Rattus norvegicus, UniProt P35439) for O=[N+]([O-])c1ccc(O)c2ncccc12 .
Result block: > 30 µM

Query block: Supply AC50 measured with Glutamate receptor ionotropic, NMDA 1 (Rattus norvegicus, UniProt P35439) for COc1cc2c(cc1OC)C(CCc1ccc(Cl)cc1)N(C)CC2 (stereo not drawn) .
Result block: > 10 µM

Query block: Supply AC50 measured with Glutamate receptor ionotropic, NMDA 1 (Rattus norvegicus, UniProt P35439) for CC(=O)OCC(=O)[C@@]1(O)[C@H](C)C[C@H]2[C@@H]3CCC4=CC(=O)C=C[C@]4(C)[C@@]3(F)[C@@H](O)C[C@@]21C [DEXAMETHASONE ACETATE] .
Result block: > 10 µM

Query block: Supply AC50 measured with Glutamate receptor ionotropic, NMDA 1 (Rattus norvegicus, UniProt P35439) for CC(C)NCC(O)c1ccc(O)c(O)c1 (stereo not drawn) .
Result block: > 10 µM

Query block: Supply AC50 measured with Glutamate receptor ionotropic, NMDA 1 (Rattus norvegicus, UniProt P35439) for CCN(CC)CCNC(=O)c1cc(S(C)(=O)=O)ccc1OC [TIAPRIDE] .
Result block: > 30 µM

Query block: Supply AC50 measured with Glutamate receptor ionotropic, NMDA 1 (Rattus norvegicus, UniProt P35439) for OC1(c2ccc(Cl)cc2)c2ccccc2C2=NCCN21 (stereo not drawn) .
Result block: > 30 µM

Query block: Supply AC50 measured with Glutamate receptor ionotropic, NMDA 1 (Rattus norvegicus, UniProt P35439) for CC1(C)S[C@@H]2[C@H](NC(=O)[C@H](N)c3ccccc3)C(=O)N2[C@H]1C(=O)OCOC(=O)[C@@H]1N2C(=O)C[C@H]2S(=O)(=O)C1(C)C .
Result block: > 30 µM

Query block: Supply AC50 measured with Glutamate receptor ionotropic, NMDA 1 (Rattus norvegicus, UniProt P35439) for O=C(O)c1ccccc1Nc1cc(Cl)ccc1C(=O)O .
Result block: 25 µM

Query block: Supply AC50 measured with Glutamate receptor ionotropic, NMDA 1 (Rattus norvegicus, UniProt P35439) for CCOC(=O)O[C@]1(C(=O)OCCl)CC[C@H]2[C@@H]3CCC4=CC(=O)C=C[C@]4(C)[C@H]3[C@@H](O)C[C@@]21C [LOTEPREDNOL ETABONATE] .
Result block: > 30 µM

Query block: Supply AC50 measured with Glutamate receptor ionotropic, NMDA 1 (Rattus norvegicus, UniProt P35439) for CC1OC2(CS1)CN1CCC2CC1 (stereo not drawn) .
Result block: > 10 µM

Query block: Supply AC50 measured with Glutamate receptor ionotropic, NMDA 1 (Rattus norvegicus, UniProt P35439) for CC(=O)O[C@H](CC(=O)[O-])C[N+](C)(C)C .
Result block: > 30 µM

Query block: Supply AC50 measured with Glutamate receptor ionotropic, NMDA 1 (Rattus norvegicus, UniProt P35439) for CCCCC1C(=O)N(c2ccccc2)N(c2ccccc2)C1=O .
Result block: > 10 µM

Query block: Supply AC50 measured with Glutamate receptor ionotropic, NMDA 1 (Rattus norvegicus, UniProt P35439) for Cc1ncc2n1-c1ccc(Cl)cc1C(c1ccccc1F)=NC2 .
Result block: > 10 µM

Query block: Supply AC50 measured with Glutamate receptor ionotropic, NMDA 1 (Rattus norvegicus, UniProt P35439) for CCc1cc(C(N)=S)ccn1 [ETHIONAMIDE] .
Result block: > 10 µM

Query block: Supply AC50 measured with Glutamate receptor ionotropic, NMDA 1 (Rattus norvegicus, UniProt P35439) for CCCC(CCC)C(N)=O [VALPROMIDE] .
Result block: > 10 µM

Query block: Supply AC50 measured with Glutamate receptor ionotropic, NMDA 1 (Rattus norvegicus, UniProt P35439) for C[C@]12C=CC(=O)N[C@@H]1CC[C@@H]1[C@@H]2CC[C@]2(C)[C@@H](C(=O)Nc3cc(C(F)(F)F)ccc3C(F)(F)F)CC[C@@H]12 [DUTASTERIDE] .
Result block: > 10 µM

Query block: Supply AC50 measured with Glutamate receptor ionotropic, NMDA 1 (Rattus norvegicus, UniProt P35439) for C[C@]12CCC(=O)C(O)=C1CC[C@@H]1[C@@H]2CC[C@]2(C)C(=O)CC[C@@H]12 .
Result block: > 30 µM

Query block: Supply AC50 measured with Glutamate receptor ionotropic, NMDA 1 (Rattus norvegicus, UniProt P35439) for COCC1=C(C(=O)O)N2C(=O)[C@@H](NC(=O)/C(=N\OC)c3csc(N)n3)[C@H]2SC1 .
Result block: > 30 µM

Query block: Supply AC50 measured with Glutamate receptor ionotropic, NMDA 1 (Rattus norvegicus, UniProt P35439) for CCC(=O)O[C@H]1CC[C@H]2[C@@H]3CCC4=CC(=O)CC[C@]4(C)[C@H]3CC[C@]12C [TESTOSTERONE PROPIONATE] .
Result block: > 10 µM
